- protocol summary: ATG_VDRE_CIS: Attagene CIS-FACTORIAL HepG2 Assay for human Vitamin D Receptor Element (VDRE) (AID 2282968)
- measurement conditions: HepG2 VDRE cis-reporter transcription, actives raise or lower the signal
Activity calls are given as the source filed them. The calls were made as follows: active = hit-call score of the fitted dose curve at least 0.9, where 1 is the maximum; inactive = score below 0.9.
Returns: one label drawn from true (active), false (inactive)

Query: // outcome(item) with item = COc1cc(OC)nc(NC(=O)NS(=O)(=O)Nc2ccccc2C(=O)N(C)C)n1
Reply: false

Query: // outcome(item) with item = O=C1c2ccccc2C(=O)c2c(O)c(O)cc(O)c21
Reply: false

Query: // outcome(item) with item = O=C(Nc1cccc([N+](=O)[O-])c1)c1cc2ccccc2cc1O
Reply: false

Query: // outcome(item) with item = O=C(c1ccccc1)c1ccccc1
Reply: false

Query: // outcome(item) with item = C=CC(=O)OCCC(F)(F)C(F)(F)C(F)(F)C(F)(F)C(F)(F)C(F)(F)C(F)(F)C(F)(F)F
Reply: false

Query: // outcome(item) with item = CNNCc1ccc(C(=O)NC(C)C)cc1
Reply: false

Query: // outcome(item) with item = CC(C)(c1ccc(Oc2ccc(N)cc2)cc1)c1ccc(Oc2ccc(N)cc2)cc1
Reply: true

Query: // outcome(item) with item = Cc1ccc(S(=O)(=O)O)cc1
Reply: false

Query: // outcome(item) with item = C=CC(=O)OCC(CO)(COCC(COC(=O)C=C)(COC(=O)C=C)COC(=O)C=C)COC(=O)C=C
Reply: true

Query: // outcome(item) with item = FCOC(C(F)(F)F)C(F)(F)F
Reply: false

Query: // outcome(item) with item = O=C(F)C(F)(F)C(F)(F)C(F)(F)C(F)F
Reply: false

Query: // outcome(item) with item = OCCN1CN(CCO)CN(CCO)C1
Reply: false

Query: // outcome(item) with item = O=C(O)CCC(F)(F)C(F)(F)C(F)(F)C(F)(F)C(F)(F)F
Reply: false

Query: // outcome(item) with item = C=CC(F)(F)C(F)(F)C(F)(F)C(F)(F)F
Reply: false

Query: // outcome(item) with item = CCCCCCCC(OC)OC
Reply: false

Query: // outcome(item) with item = O=C1Cc2ccccc2N1c1c(Cl)cccc1Cl
Reply: true

Query: // outcome(item) with item = C[C@]12CC[C@@H]3c4ccc(O)cc4CC[C@H]3[C@@H]1CC[C@@H]2OC(=O)CCC1CCCC1
Reply: false

Query: // outcome(item) with item = CCO[Si](CCC1CCC2OC2C1)(OCC)OCC (stereo not given)
Reply: false

Query: // outcome(item) with item = Cc1ccc2ccc3ccc(C)cc3c2c1
Reply: false

Query: // outcome(item) with item = c1cc[nH]c1
Reply: false

Query: // outcome(item) with item = CCCCc1ccc2ccccc2c1S(=O)(=O)O
Reply: true

Query: // outcome(item) with item = O=S(=O)(O)c1ccc2cc(O)ccc2c1
Reply: false

Query: // outcome(item) with item = CC1CCC(C(=O)O)CC1 (stereo not given)
Reply: false

Query: // outcome(item) with item = O=S(=O)(O)C(F)(F)C(F)(F)C(F)(F)C(F)(F)C(F)(F)C(F)(F)C(F)(F)C(F)(F)C(F)(F)C(F)(F)F
Reply: false

Query: // outcome(item) with item = FC(F)(F)C1(F)C(F)(F)C(F)(F)C(F)(F)C(F)(C(F)(F)F)C1(F)F (stereo not given)
Reply: false

----------
- test target: Bile acid receptor (Homo sapiens) (UniProt Q96RI1)
- Sequence (Q96RI1 whole entry, looked up): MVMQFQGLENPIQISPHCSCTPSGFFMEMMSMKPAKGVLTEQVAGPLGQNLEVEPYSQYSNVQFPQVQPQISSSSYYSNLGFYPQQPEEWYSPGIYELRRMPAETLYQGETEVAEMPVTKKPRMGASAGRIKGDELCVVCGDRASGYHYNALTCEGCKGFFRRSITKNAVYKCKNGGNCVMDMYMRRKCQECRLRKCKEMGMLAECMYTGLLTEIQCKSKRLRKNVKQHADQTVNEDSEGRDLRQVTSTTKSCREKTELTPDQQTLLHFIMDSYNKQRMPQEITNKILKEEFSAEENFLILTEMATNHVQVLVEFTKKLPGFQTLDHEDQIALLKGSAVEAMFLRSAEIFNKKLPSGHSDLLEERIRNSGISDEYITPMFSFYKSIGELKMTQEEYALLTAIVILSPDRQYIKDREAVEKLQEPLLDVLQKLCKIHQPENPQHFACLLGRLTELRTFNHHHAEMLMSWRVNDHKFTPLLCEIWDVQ
- protocol summary: ATG_IR1_CIS: Attagene CIS-FACTORIAL HepG2 Assay for human Nuclear Receptor Subfamily 1 Group H Member 4 (NR1H4), IR1 submotif (AID 2282946)
- measurement conditions: IR1 reporter transcription, actives raise or lower the signal
Activity calls are given as the source filed them. Rule for the calls: active = hit-call score of the fitted dose curve at least 0.9, where 1 is the maximum; inactive = score below 0.9.
Returns: one label drawn from active, inactive

Query: // outcome(item) with item = NNc1nc(-c2ccc([N+](=O)[O-])cc2)cs1
Reply: inactive

Query: // outcome(item) with item = O=C(Nc1ccc(Cl)c(Cl)c1)c1cc(Cl)cc(Cl)c1O
Reply: active

Query: // outcome(item) with item = CCOC=O
Reply: inactive

Query: // outcome(item) with item = CN(Cc1cnc2nc(N)nc(N)c2n1)c1ccc(C(=O)N[C@@H](CCC(=O)O)C(=O)O)cc1
Reply: inactive

Query: // outcome(item) with item = CC1CNCC(C)O1 (configuration not stated)
Reply: inactive

Query: // outcome(item) with item = c1cc[nH]c1
Reply: inactive

Query: // outcome(item) with item = C=CC(C)(CCC=C(C)C)OC(C)=O (configuration not stated)
Reply: inactive

----------
- protocol summary: BSK_SAg_PBMCCytotoxicity: PBMC Cytotoxicity Assessment in the BioMAP Diversity Plus: SAg Assay (AID 2283093);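 also: PBMC viability measured as Alamar Blue reduction fluorescence at 546/580 nm; fitted both ways against DMSO so a hit may be loss or gain of signal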
- measurement conditions: primary human HUVEC with PBMC
- Procedure: BSK_SAg is a cell-based, multiplexed-readout assay that uses umbilical vein endothelium and peripheral blood mononuclear cells, a human vascular primary cell co-culture, with measurements taken at 24 hours after chemical dosing in a 96-well plate.BSK_SAg_PBMCCytotoxicity is an assay component measured in the BSK_SAg assay. It measures Alamar blue related to cell death using Alamar Blue Reduction technology.Data from the assay component BSK_SAg_PBMCCytotoxicity was analyzed into 1 assay endpoint. […]
Activity calls are given as the source filed them. How the source made its calls: active means hit-call score of the fitted dose curve at least 0.9, where 1 is the maximum; inactive means score below 0.9.
Returns: one label drawn from 1 = active, -1 = inactive

Query: // outcome(item) with item = Cc1ccc(N=Nc2c(O)ccc3ccccc23)c(C)c1
Reply: 1

Query: // outcome(item) with item = O=P(O)(O)CCC(F)(F)C(F)(F)C(F)(F)C(F)(F)C(F)(F)C(F)(F)F
Reply: -1

Query: // outcome(item) with item = CN(CCO)S(=O)(=O)C(F)(F)C(F)(F)C(F)(F)C(F)(F)C(F)(F)C(F)(F)C(F)(F)C(F)(F)F
Reply: -1

Query: // outcome(item) with item = COCN(COC)c1nc(N(COC)COC)nc(N(COC)COC)n1
Reply: -1

Query: // outcome(item) with item = CN(C)CCOC(c1ccccc1)c1ccccc1
Reply: -1

Query: // outcome(item) with item = OCCN1CN(CCO)CN(CCO)C1
Reply: 1

Query: // outcome(item) with item = CC[N+](CC)(CC)Cc1ccccc1
Reply: -1

----------
- Read-out: Tissue Factor, F3 (gene 2152)
- protocol summary: BSK_LPS_TissueFactor: BioMAP Diversity Plus: LPS Assay for Tissue Factor Biomarker Activity (AID 2283084)
- measurement conditions: primary human HUVEC with PBMC; actives raise or lower the signal
- Method: BSK_LPS is a cell-based, multiplexed-readout assay that uses umbilical vein endothelium and peripheral blood mononuclear cells, a human vascular primary cell co-culture, with measurements taken at 24 hours after chemical dosing in a 96-well plate.BSK_LPS_TissueFactor is an assay component measured in the BSK_LPS assay. […] This assay endpoint, BSK_LPS_TissueFactor, was analyzed with bidirectional fitting relative to DMSO as the negative control and baseline of activity. […]
Calls of active or inactive are those of the source. The calls were made as follows: active = hit-call score of the fitted dose curve at least 0.9, where 1 is the maximum; inactive = score below 0.9.
Returns: one label drawn from active, inactive

Query: // outcome(item) with item = O=C(O)CCC(F)(F)C(F)(F)C(F)(F)C(F)(F)C(F)(F)F
Reply: inactive

Query: // outcome(item) with item = CCCCCCCCCCCCCCC
Reply: inactive

Query: // outcome(item) with item = CCCCCCCCCCCCCCCCCC[N+](C)(C)Cc1ccccc1
Reply: active

Query: // outcome(item) with item = CCC(C)c1ccccc1O (configuration not stated)
Reply: inactive

Query: // outcome(item) with item = COCN(COC)c1nc(N(COC)COC)nc(N(COC)COC)n1
Reply: inactive

Query: // outcome(item) with item = CN(C)CCOC(c1ccccc1)c1ccccc1
Reply: inactive

Query: // outcome(item) with item = Oc1cc2ccccc2cc1O
Reply: inactive

Query: // outcome(item) with item = CCCCCCCCCCCCOS(=O)(=O)O
Reply: inactive

Query: // outcome(item) with item = C=CC(C)(CCC=C(C)C)OC(C)=O (configuration not stated)
Reply: inactive

Query: // outcome(item) with item = OCC(F)(F)C(F)(F)C(F)(F)C(F)(F)C(F)(F)C(F)(F)C(F)(F)C(F)(F)C(F)(F)C(F)(F)C(F)(F)F
Reply: inactive

Query: // outcome(item) with item = CN(C)c1ccc(C(=C2C=CC(=[N+](C)C)C=C2)c2ccccc2)cc1
Reply: active

Query: // outcome(item) with item = COc1cc(OC)nc(NC(=O)NS(=O)(=O)Nc2ccccc2C(=O)N(C)C)n1
Reply: inactive

----------
- test target: Estrogen receptor (Homo sapiens)
- protocol summary: NVS_NR_hER: NovaScreen (NVS) Nuclear Receptor Binding Assay for human Estrogen Receptor (ER) (AID 2283348)
Results filed as inconclusive are left out. Calls of active or inactive are those of the source. The calls were made as follows: active = hit-call score of the fitted dose curve at least 0.9, where 1 is the maximum; inconclusive = response in the unintended direction; inactive = score below 0.9.
Returns: one label drawn from active, inactive

Query: // outcome(item) with item = O=C(Nc1cccc([N+](=O)[O-])c1)c1cc2ccccc2cc1O
Reply: inactive

Query: // outcome(item) with item = Oc1ccc(Cc2ccccc2O)cc1
Reply: inactive

Query: // outcome(item) with item = CCCCCCc1ccc(N)cc1
Reply: inactive

Query: // outcome(item) with item = c1ccc(CNc2ncnc3c2ncn3C2CCCCO2)cc1 (stereo not drawn)
Reply: inactive

Query: // outcome(item) with item = O=C1Cc2ccccc2N1c1c(Cl)cccc1Cl
Reply: inactive

Query: // outcome(item) with item = NCc1cccc(CN)c1
Reply: inactive

Query: // outcome(item) with item = CCCCCCCCCCCCCC[n+]1ccccc1
Reply: inactive

Query: // outcome(item) with item = CCOC(=O)c1nc(C(Cl)(Cl)Cl)n(-c2ccc(Cl)cc2Cl)n1
Reply: inactive

Query: // outcome(item) with item = Nc1cc(Cl)c(-c2cc(Cl)c(N)cc2Cl)cc1Cl
Reply: active

Query: // outcome(item) with item = C[C@]12CC[C@@H]3c4ccc(O)cc4CC[C@H]3[C@@H]1CC[C@@H]2OC(=O)CCC1CCCC1
Reply: active

Query: // outcome(item) with item = N=C(N)c1ccc(OCCCCCOc2ccc(C(=N)N)cc2)cc1
Reply: inactive

Query: // outcome(item) with item = O=C(Nc1ccc(Cl)c(Cl)c1)c1cc(Cl)cc(Cl)c1O
Reply: active

Query: // outcome(item) with item = CCc1ccccc1O
Reply: inactive
